# key: entry, value: EC50
- Test system: HalhaCAPA-R
- PROCEDURE TEXT: Concentration-response, calcium mobilization (FLIPR Calcium 6) in Sf9 cells expressing HalhaCAPA-R
- Type: cell-based, Halyomorpha halys
- COND: HalhaCAPA-R in Sf9 cells, intracellular calcium, FLIPR Calcium 6 fluorescence, at least three independent experiments; read-out: Half-maximum effective concentration (EC50)
Where no end group is shown, it is not given here.
RESULT TYPE: EC50

INSERT INTO measurements (substance, result_type, reported) VALUES
  ('NGASGNGGLWFGPRL-NH2 [CAPA-DH/PK1]', 'EC50', '> 1 µM'),
  ('FYAPFSPRL-NH2 [PBAN/PK2]', 'EC50', '> 1 µM');

Measured values drawn from paper PMC7274154 for this set.
